- test system: CDK2/CylinE (Homo sapiens, UniProt P24941)
- run description: In vitro kinase assay CDK2/CylinE, 32P incorporation into Histone H1
- stated conditions: recombinant human enzyme complex, average of two independent experiments in triplicate
observable: pIC50
Please note pIC50 is a logarithmic value: minus log10 of concentration in mol/L. Answer with that number alone.

O=C(c1cc2cc(Br)cc(Br)c2oc1=O)c1cc2cc(Br)cc(Br)c2oc1=O : 5.00

**Q:** For the record COc1cccc2oc(=O)c(C(=O)c3cc4c(OC)cccc4oc3=O)cc12 , what value of pIC50 is listed for CDK2/CylinE (Homo sapiens, UniProt P24941)?
**A:** 5.00

**Q:** Hello, I am looking for reported pIC50 with CDK2/CylinE (Homo sapiens, UniProt P24941) for O=C(c1cc2cc(Cl)cc(Br)c2oc1=O)c1cc2cc(Cl)cc(Br)c2oc1=O . Could you help?
**A:** 7.05

**Q:** Look up pIC50 with CDK2/CylinE (Homo sapiens, UniProt P24941) for this molecule: COc1cc([N+](=O)[O-])cc2cc(C(=O)c3cc4cc([N+](=O)[O-])cc(OC)c4oc3=O)c(=O)oc12
**A:** 6.26

**Q:** Item: O=C(c1cc2cc([N+](=O)[O-])ccc2oc1=O)c1cc2cc([N+](=O)[O-])ccc2oc1=O Test system: CDK2/CylinE (Homo sapiens, UniProt P24941) Read-out: pIC50 Value: ?
**A:** 5.81

====

- Tested on: DU145 Cells
- run description: Cytotoxicity on DU145 tumor cells, viable cells by Trypan blue exclusion
- Assay type: cell-based, human
- stated conditions: Homo sapiens, DU-145; DU145 prostate cell line, 96 h continuous treatment, five concentrations (1-100 μM range)
observable: IC50

Worked examples, 5 molecules total:
COc1ccc(Br)c2cc(C(=O)c3cc4c(Br)ccc(OC)c4oc3=O)c(=O)oc12 [Example 15] : 25 to 50 µM
COc1ccc2cc(C(=O)c3cc4ccc(OC)cc4oc3=O)c(=O)oc2c1 [Example 2] : > 100 µM
O=C(c1cc2cc(I)cc(I)c2oc1=O)c1cc2cc(I)cc(I)c2oc1=O [Example 29] : 10 to 20 µM
O=C(c1cc2cc(F)cc(F)c2oc1=O)c1cc2cc(F)cc(F)c2oc1=O [Example 14] : 10 to 25 µM
O=C(c1cc2cc(F)ccc2oc1=O)c1cc2cc(F)ccc2oc1=O [Example 7] : > 100 µM

**Q:** Return IC50 measured with DU145 Cells given this molecule: COc1cc(Br)cc2cc(C(=O)c3cc4cc(Br)cc(OC)c4oc3=O)c(=O)oc12 [Example 16]
**A:** 50 to 100 µM

**Q:** Find the measured IC50: item COc1cccc2oc(=O)c(C(=O)c3cc4c(OC)cccc4oc3=O)cc12 [Example 21] , target or system DU145 Cells.
**A:** 50 to 100 µM

**Q:** Form field: IC50 recorded for COc1cc([N+](=O)[O-])cc2cc(C(=O)c3cc4cc([N+](=O)[O-])cc(OC)c4oc3=O)c(=O)oc12 [Example 10] with DU145 Cells (enter value)
**A:** 10 to 25 µM

**Q:** Find IC50 (DU145 Cells) for the entry CCOc1cccc2cc(C(=O)c3cc4cccc(OCC)c4oc3=O)c(=O)oc12 [Example 4]
**A:** > 100 µM

**Q:** Report IC50 for O=C(c1cc2cc(Br)cc(Br)c2oc1=O)c1cc2cc(Br)cc(Br)c2oc1=O [Example 13] tested on DU145 Cells.
**A:** 10 to 25 µM

**Q:** What measured IC50 is associated with O=C(c1cc2cc(I)ccc2oc1=O)c1cc2cc(I)ccc2oc1=O [Example 8] on DU145 Cells?
**A:** > 100 µM

**Q:** What value of IC50 on DU145 Cells does O=C(c1cc2cc(Cl)cc(Cl)c2oc1=O)c1cc2cc(Cl)cc(Cl)c2oc1=O [Example 12] have?
**A:** 10 to 25 µM

**Q:** Fill in the recorded IC50 for this molecule, with DU145 Cells as test system: O=C(c1cc2ccccc2oc1=O)c1cc2ccccc2oc1=O [Example 5]
**A:** > 100 µM

**Q:** Test system DU145 Cells; read-out IC50; what value for COc1cc(OC)c2cc(C(=O)c3cc4c(OC)cc(OC)cc4oc3=O)c(=O)oc2c1 [Example 3] ?
**A:** > 100 µM

**Q:** For the record O=C(c1cc2ccc(O)cc2oc1=O)c1cc2ccc(O)cc2oc1=O [Example 11] , what value of IC50 is listed for DU145 Cells?
**A:** > 100 µM

**Q:** Notebook entry, DU145 Cells assay: IC50 of O=C(c1cc2cccc(O)c2oc1=O)c1cc2cccc(O)c2oc1=O [Example 17] = ?
**A:** 25 to 50 µM

**Q:** API: value(readout=IC50, system=DU145 Cells) for record O=C(c1cc2cc(O)ccc2oc1=O)c1cc2cc(O)ccc2oc1=O [Example 18]
**A:** > 100 µM

**Q:** Please tell me: IC50 of O=C(c1cc2cc(Br)ccc2oc1=O)c1cc2cc(Br)ccc2oc1=O [Example 1] , system DU145 Cells?
**A:** > 100 µM
